- systemUnderTest: CFTR (Homo sapiens, UniProt P13569)
- Sequence (P13569 with tags, fused parts or gaps DEL508-508): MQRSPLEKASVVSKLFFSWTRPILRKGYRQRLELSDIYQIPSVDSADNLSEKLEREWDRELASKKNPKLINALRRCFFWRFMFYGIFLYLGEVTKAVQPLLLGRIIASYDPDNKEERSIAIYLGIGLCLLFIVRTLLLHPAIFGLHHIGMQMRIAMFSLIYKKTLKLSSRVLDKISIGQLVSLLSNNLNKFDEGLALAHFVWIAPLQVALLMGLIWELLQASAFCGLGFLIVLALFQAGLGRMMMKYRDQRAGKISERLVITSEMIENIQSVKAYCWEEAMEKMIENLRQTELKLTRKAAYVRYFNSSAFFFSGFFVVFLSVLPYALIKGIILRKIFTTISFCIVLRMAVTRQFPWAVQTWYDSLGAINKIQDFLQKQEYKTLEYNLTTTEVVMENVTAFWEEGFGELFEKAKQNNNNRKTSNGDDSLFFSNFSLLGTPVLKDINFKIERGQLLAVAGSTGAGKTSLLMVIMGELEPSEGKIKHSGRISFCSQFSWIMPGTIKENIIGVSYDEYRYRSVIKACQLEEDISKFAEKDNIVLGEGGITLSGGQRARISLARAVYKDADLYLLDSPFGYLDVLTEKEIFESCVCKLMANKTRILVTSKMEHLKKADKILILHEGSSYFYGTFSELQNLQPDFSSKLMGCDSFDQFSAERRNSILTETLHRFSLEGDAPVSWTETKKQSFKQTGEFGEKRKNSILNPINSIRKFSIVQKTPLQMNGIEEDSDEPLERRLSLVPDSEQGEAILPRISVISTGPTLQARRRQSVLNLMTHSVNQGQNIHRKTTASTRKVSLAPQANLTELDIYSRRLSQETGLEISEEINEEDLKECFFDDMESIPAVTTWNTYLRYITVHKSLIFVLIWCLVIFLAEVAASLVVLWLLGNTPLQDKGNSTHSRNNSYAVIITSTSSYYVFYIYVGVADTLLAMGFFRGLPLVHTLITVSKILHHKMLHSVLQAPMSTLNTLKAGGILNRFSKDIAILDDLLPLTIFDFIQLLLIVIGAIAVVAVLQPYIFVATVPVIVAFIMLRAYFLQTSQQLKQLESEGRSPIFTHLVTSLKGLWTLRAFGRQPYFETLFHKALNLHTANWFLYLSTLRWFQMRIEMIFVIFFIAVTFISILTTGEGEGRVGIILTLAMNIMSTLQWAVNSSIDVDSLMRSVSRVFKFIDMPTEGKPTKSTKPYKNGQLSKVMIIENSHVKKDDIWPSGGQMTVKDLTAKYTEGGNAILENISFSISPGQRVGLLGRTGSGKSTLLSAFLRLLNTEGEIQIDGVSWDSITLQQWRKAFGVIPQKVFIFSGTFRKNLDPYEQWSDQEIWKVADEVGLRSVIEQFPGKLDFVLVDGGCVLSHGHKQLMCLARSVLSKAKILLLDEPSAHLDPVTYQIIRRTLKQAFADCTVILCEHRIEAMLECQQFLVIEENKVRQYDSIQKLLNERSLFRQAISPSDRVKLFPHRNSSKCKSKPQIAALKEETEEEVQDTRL
- testSummary: Membrane Potential Dye, Enteroid Assay A
- Format: cell-based
- studyConditions: Table 9
reportedMetric: Ent. A Max Activity

1. Cc1cccc(C)c1-c1cc2nc(n1)NS(=O)(=O)c1cccc(c1)C(=O)NCC(c1ccc(CCC(C)(C)C)cc1)O2 (centres unmarked) [Compound 24]: +++ (+++ is >60%)
2. Cc1cccc(C)c1-c1cc2nc(n1)NS(=O)(=O)c1cccc(c1)C(=O)NC1(CCN(CCC(C)(C)C)CC1)CO2 [Compound 86]: +++ (+++ is >60%)
3. Cc1cccc(C)c1-c1cc2nc(n1)NS(=O)(=O)c1cccc(c1)C(=O)NCC(c1ccc(/C=C/C(C)(C)C)cc1)O2 (centres unmarked) [Compound 23]: +++ (+++ is >60%)

====

- systemUnderTest: CFTR (Homo sapiens)
- testSummary: Membrane Potential Dye, Enteroid Assay A
- Assay type: cell-based
- studyConditions: Table 8
reportedMetric: Ent. A Max Activity

Recorded results for 5 molecules are shown here.
1) Cc1cccc(C)c1-c1cc2nc(n1)NS(=O)(=O)c1cccc(c1)C(=O)NCC(C1CCN(C(=O)OC(C)(C)C)CC1)O2 (centres unmarked): +++ (+++ is >60%)
2) CC(C)C[C@@H]1COc2cc(-n3nccc3C(C)C)nc(n2)NS(=O)(=O)c2cccc(c2)C(=O)N1: + (+ is <30%)
3) Cc1cccc(C)c1-c1cc2nc(n1)NS(=O)(=O)c1cccc(c1)C(=O)NC[C@H](c1ccc(C(C)(C)C)cc1)O2 (single isomer, unassigned): + (+ is <30%)
4) Cc1cccc(C)c1-c1cc2nc(n1)NS(=O)(=O)c1cccc(c1)C(=O)NCC(C1CCCCC1)O2 (centres unmarked): +++ (+++ is >60%)
5) Cc1cccc(C)c1-c1cc2nc(n1)NS(=O)(=O)c1cccc(c1)C(=O)NC[C@@H](CN1CCCCC1)O2 (stereo in doubt): + (+ is <30%)

I would be grateful if you could share the reported Ent. A Max Activity for Cc1cccc(C)c1-c1cc2nc(n1)NS(=O)(=O)c1cccc(c1)C(=O)NC[C@H](c1cccc(C(C)(C)C)c1)O2 (stereo in doubt) .
+ (+ is <30%)

Now the same for Cc1cccc(C)c1-c1cc2cc(n1)NS(=O)(=O)c1cccc(c1)C(=O)N[C@H](CC(C)C)CO2
+++ (+++ is >60%)

Now the same for CC(C)C[C@@H]1COc2cc(-n3ccc(OCCC4(C(F)(F)F)CC4)n3)nc(n2)NS(=O)(=O)c2cccc(c2)C(=O)N1
+ (+ is <30%)

====

// reported pEC50 for each item listed
- systemUnderTest: CFTR (Homo sapiens)
- testSummary: Membrane Potential Dye, Enteroid Assay A
- Format: cell-based
- studyConditions: Table 9; read-out: Ent. A EC50
pEC50: −log10 of the molar value.

1) Cc1cccc(C)c1-c1cc2nc(n1)NS(=O)(=O)c1cccc(c1)C(=O)N[C@H]1CCN(CCC(C)(C)C)C[C@H]1O2 (single isomer, unassigned): 5.52 to 6.00
2) CCCC1(CCC)COc2cc(-c3c(C)cccc3C)nc(n2)NS(=O)(=O)c2cccc(c2)C(=O)N1: > 6.00
3) Cc1cccc(C)c1-c1cc2nc(n1)NS(=O)(=O)c1cccc(c1)C(=O)NC(C)(CC(C)C)CO2 (stereo not drawn) [Compound 177]: > 6.00
4) Cc1cccc(C)c1-c1cc2nc(n1)NS(=O)(=O)c1cccc(c1)C(=O)NCC(c1ccc(C34CC(C3)C4)cc1)O2 (stereo not drawn) [Compound 396]: > 6.00
5) Cc1cccc(C)c1-c1cc2nc(n1)NS(=O)(=O)c1cccc(c1)C(=O)NC[C@@H](c1ccc(C3CC3)cc1)O2 [Compound 260]: > 6.00

Attention now shifts to the item below.
I would be grateful if you could share the reported pEC50 for Cc1cccc(C)c1-c1cc2nc(n1)NS(=O)(=O)c1cccc(c1)C(=O)N[C@@H](CC(F)(F)F)CO2 (single isomer, unassigned) [Compound 93] .
4.52 to 5.52

====

- systemUnderTest: CFTR (Homo sapiens)
- testSummary: Membrane Potential Dye, Enteroid Assay A
- Format: cell-based
- studyConditions: Table 9
reportedMetric: Ent. A Max Activity

Recorded results for 4 compounds are shown here.
1. Cc1ccc(Cc2cccc(C)c2-c2cc3nc(n2)NS(=O)(=O)c2cccc(c2)C(=O)N[C@H](CC(C)C)CO3)cc1 [Compound 394]: +++ (+++ is >60%)
2. Cc1cccc(C)c1-c1cc2nc(n1)NS(=O)(=O)c1ccccc1C(=O)N[C@H](C)[C@@H](c1ccc(C(C)(C)C)cc1)O2 [Compound 282]: + (+ is <30%)
3. Cc1cccc(C)c1-c1cc2nc(n1)NS(=O)(=O)c1cccc(c1)C(=O)N[C@@H]1CN(C3CCC4(CC3)CC4)CC[C@H]1O2 [Compound 374]: +++ (+++ is >60%)
4. CCC(CC)(CC)c1ccc([C@@H]2CNC(=O)c3cccc(c3)S(=O)(=O)Nc3nc(cc(-c4c(C)cccc4C)n3)O2)cc1 [Compound 259]: + (+ is <30%)

Which measured Ent. A Max Activity belongs to Cc1cccc(C)c1-c1cc2nc(n1)NS(=O)(=O)c1cccc(c1)C(=O)N[C@@H]1CN(CCC(C)(C)C)C[C@H]1O2 [Compound 64] , tested on CFTR (Homo sapiens)?
+++ (+++ is >60%)

====

- systemUnderTest: CFTR (Homo sapiens)
- testSummary: Membrane Potential Dye, Enteroid Assay A
- Assay type: cell-based
- studyConditions: Enteroid Assay A; read-out: Ent. A EC50
pEC50: −log10 of the molar value.
reportedMetric: pEC50

Recorded results for 6 molecules are shown here.
1. Cc1cccc(C)c1-c1cc2nc(n1)NS(=O)(=O)c1cccc(c1)C(=O)NCC1(CCN(CCOCc3ccccc3)CC1)CO2: 4.52 to 5.52
2. CC(C)C[C@@H]1COc2cc(-c3ccccc3OCC3CC3)nc(n2)NS(=O)(=O)c2cccc(c2)C(=O)N1: 5.52 to 6.00
3. Cc1cccc(C)c1-c1cc2nc(n1)NS(=O)(=O)c1cccc(c1)C(=O)NCC1(CCN(C(=O)[C@H]3[C@H](c4ccccc4)C3(C)C)CC1)CO2: 5.52 to 6.00
4. CC(C)C[C@@H]1COc2cc(C3=CCCC3)nc(n2)NS(=O)(=O)c2cccc(c2)C(=O)N1: 4.52 to 5.52
5. Cc1cccc(C)c1-c1cc2nc(n1)NS(=O)(=O)c1cccc(c1)C(=O)NC1CC(CN(C(=O)OCc3ccccc3)C1)O2 (centres unmarked): 4.52 to 5.52
6. Cc1cccc(C)c1-c1cc2nc(n1)NS(=O)(=O)c1cccc(c1)C(=O)NCC1(CCCCC1)CO2: > 6.00

Which measured pEC50 belongs to Cc1cccc(C)c1-c1cc2nc(n1)NS(=O)(=O)c1cccc(c1)C(=O)N[C@H](CC(C)(C)C)CO2 , tested on CFTR (Homo sapiens)?
> 6.00

Now the same for Cc1ccccc1[C@@H]1Oc2cc(-c3c(C)cccc3C)nc(n2)NS(=O)(=O)c2cccc(c2)C(=O)N[C@@H]1CC(C)C
> 6.00

Now the same for Cc1cccc(C)c1-c1cc2nc(n1)NS(=O)(=O)c1cccc(c1)C(=O)N[C@@H]1CCCC[C@@H]1O2
5.52 to 6.00

Now the same for CC(C)C[C@@H]1COc2cc(-c3cc(C(F)(F)F)nn3C)nc(n2)NS(=O)(=O)c2cccc(c2)C(=O)N1
4.52 to 5.52

====

- systemUnderTest: CFTR (Homo sapiens, UniProt P13569)
- testSummary: Membrane Potential Dye, Enteroid Assay A
- Type: cell-based
- studyConditions: Table 9
reportedMetric: Ent. A Max Activity

1. Cc1cccc(C)c1-c1cc2nc(n1)NS(=O)(=O)c1cccc(c1)C(=O)NC[C@@H](c1ccc(C3CC3)cc1)O2 [Compound 261]: ++ (++ is 30-60%)
2. Cc1cccc(C)c1-c1cc2nc(n1)NS(=O)(=O)c1cccc(c1)C(=O)N[C@@H](CC13CC4CC(CC(C4)C1)C3)CO2 (single isomer, unassigned) [Compound 111]: ++ (++ is 30-60%)

====

- systemUnderTest: UniProt P13569
- testSummary: Membrane Potential Dye, Enteroid Assay B
- Type: cell-based
- studyConditions: Table 9
- Experimental: Base medium (ADF+++) consisted of Advanced DMEM/Ham's F12, 2 mM Glutamax, 10 mM HEPES, […] penicillin/streptomycin. Bath 1 Buffer consisted of 1 mM MgCl2, 160 mM NaCl, 4.5 mM KCl, 10 mM HEPES, 10 mM Glucose, 2 mM CaCl2). […] Briefly, cells were washed 5 times in Bath 1 Buffer. […] Chloride transport was initiated by addition of Chloride Free Dye Stimulation Solution and the fluorescence signal was read for 15 min.
reportedMetric: Ent. B Max Activity

1) Cc1cccc(C)c1-c1cc2nc(n1)NS(=O)(=O)c1cc(no1)C(=O)N[C@H](CC(C)(C)C)CO2: ++ (++ is 30-60%)
2) Cc1cccc(C)c1-c1cc2nc(n1)NS(=O)(=O)c1cc(nn1C)C(=O)N[C@H](CC(C)(C)C)CO2: ++ (++ is 30-60%)
3) Cc1cccc(C)c1-c1cc2nc(n1)NS(=O)(=O)c1cccc(c1)C(=O)NCC(c1ccc(CCCO)cc1)O2 (stereo not drawn): +++ (+++ is >60%)
4) Cc1cccc(C)c1-c1cc2nc(n1)NS(=O)(=O)c1cccc(c1)C(=O)N[C@@H]1CN(C3CC4(CCCCC4)C3)C[C@H]1O2: ++ (++ is 30-60%)
5) Cc1cccc(C)c1-c1cc2nc(n1)NS(=O)(=O)c1cccc(c1)C(=O)NC(C)(CC(C)C)CO2 (stereo not drawn): +++ (+++ is >60%)
6) Cc1cccc(C)c1-c1cc2nc(n1)NS(=O)(=O)c1cc(n(C)n1)C(=O)N[C@H](CC(C)C)CO2: +++ (+++ is >60%)

I would be grateful if you could share the reported Ent. B Max Activity for Cc1cccc(C)c1-c1cc2nc(n1)NS(=O)(=O)c1cccc(c1)C(=O)N[C@H](CC(C)C)[C@@H](c1ccc(C(C)(C)C)cc1)O2 (single isomer, unassigned) [Compound 40] .
+++ (+++ is >60%)
